# target system: Nuclear receptor subfamily 1 group I member 3 (Homo sapiens) (UniProt Q14994)
# Sequence (Q14994 whole entry, looked up): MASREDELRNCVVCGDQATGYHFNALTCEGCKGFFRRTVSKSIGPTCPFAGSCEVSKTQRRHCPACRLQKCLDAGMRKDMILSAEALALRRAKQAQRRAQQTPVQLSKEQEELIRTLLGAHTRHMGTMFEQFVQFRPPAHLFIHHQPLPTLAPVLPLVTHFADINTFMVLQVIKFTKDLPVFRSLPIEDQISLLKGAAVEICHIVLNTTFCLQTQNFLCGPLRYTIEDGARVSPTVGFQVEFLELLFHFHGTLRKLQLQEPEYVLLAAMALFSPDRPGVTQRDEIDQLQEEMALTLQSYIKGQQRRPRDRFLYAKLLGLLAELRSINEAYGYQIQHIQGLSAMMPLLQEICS
# assay explanation: qHTS assay to identify small molecule antagonists of the constitutive androstane receptor (CAR) signaling pathway (AID 1224838);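 note: HepG2 cells stably expressing hCAR with CYP2B6 luciferase reporter stimulated by CITCO; nearly all actives have a fitted effect of over 40% in size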
# experimental setup: HepG2-CYP2B6-hCAR luciferase, CITCO-stimulated, 24 h; series mostly up to 92.4 µM
Inconclusive results are not listed. The source made the active and inactive calls. Calls come from the whole dose curve; as a rule, active = well fitted inhibition curve with a large enough effect in the repeat runs; inconclusive = weak or mixed curves, or effect the other way; inactive = no such curve, though single readings can be large or run the other way.
I would appreciate it if you answered using one of these outcomes: True = active, False = inactive

For `CO/N=C(/C1=NOCCO1)c1ccccc1Oc1ncnc(Oc2ccccc2Cl)c1F` , which call appears in the assay record? False

Check the results log: what was the call for `CNC(=O)Oc1cc(C)cc(C(C)C)c1` ? False

Recorded test call requested for `Oc1ccc(Cl)c(Cl)c1` False

Which outcome did this test record for the compound `CCNS(=O)(=O)C(F)(F)C(F)(F)C(F)(F)C(F)(F)C(F)(F)C(F)(F)C(F)(F)C(F)(F)F` ? False

Per the assay record, what outcome was assigned to `O=C(NC(=O)c1ccccc1Cl)Nc1ccc(OC(F)(F)F)cc1` ? False

Recorded call for `CC1CCCC1` ? False

Just curious, what result did `CNC(=O)/C=C(\C)OP(=O)(OC)OC` get here? False

Lab log entry: `CCOC(=O)Cc1ccccc1` — outcome as called in the assay? False

Please state the recorded outcome for this compound: `CN1CCc2cc(Cl)c(O)cc2[C@H]2c3ccccc3CC[C@@H]21` False

For CN1C2CCC(C)(C)C1CC(OC(=O)C(O)(c1cccs1)c1cccs1)C2 (configuration not stated) , what call appears in the results of this test? False

Assay outcome for `S=C=Nc1ccccc1` : what was it? False

// return assay outcome for `COP(=S)(OC)Oc1nc(Cl)c(Cl)cc1Cl` False

Record request — test call for `CN` False

Could you please tell me the result logged for CCC1COC(Cn2cncn2)(c2ccc(Cl)cc2Cl)O1 (configuration not stated) in this assay? False

Any idea what this test logged for `C[C@]12CC[C@H]3[C@@H](CCC4=CC(=O)CC[C@@H]43)[C@@H]1CC[C@@H]2OC(=O)CCc1ccco1` ? False

GET /call?item= COC(=O)C(C)N(C(=O)c1ccco1)c1c(C)cccc1C (configuration not stated) returns the recorded outcome of this test. False

Returns: the outcome recorded for `O=[N+]([O-])c1cc(C(F)(F)F)c(Cl)c([N+](=O)[O-])c1Nc1ncc(C(F)(F)F)cc1Cl` in this assay. True

Called result for `BrCC(Br)(Br)Br` False

For `c1cc[n+]2c(c1)-c1cccc[n+]1CC2` , which call appears in the assay record? False

Name the outcome recorded for `CCOC(=O)CCN(SN(C)C(=O)Oc1cccc2c1OC(C)(C)C2)C(C)C` in the assay. False

What did this assay record as the result for CN1CCc2cc3c(cc2C1O)OCO3 (configuration not stated) ? False

In this assay, the call recorded for `CN(C)CCc1c[nH]c2ccccc12` was what? False

Outcome logged for `Clc1ccc(C(c2ccc(Cl)cc2)C(Cl)Cl)cc1` in this assay: False

Hello, I am checking results. What call was entered for `BrCCCBr` ? False

# lookup: test call for CC(Cc1ccc2c(c1)OCO2)NO (configuration not stated) False

In this assay, the call recorded for `COc1ccc2c3c1O[C@H]1[C@H](O)CC[C@H]4[C@@H](C2)N(C)CC[C@@]341` was what? False

Test call, this compound: `O=Cc1ccccc1` False

Hey, what did the test say about OCC(Br)CBr (configuration not stated) ? False

What outcome does the record of this test show for `Cc1cc2c3c(c1)C(c1ccccc1)=N[C@@H](NC(=O)c1ccncc1)C(=O)N3CC2` ? False

Assay outcome for `ClC1=C(Cl)[C@]2(Cl)[C@H]3[C@H]([C@@H]4C=C[C@H]3C4)[C@@]1(Cl)C2(Cl)Cl` : what was it? False

Dear all, I need the recorded test outcome for CC(C)c1c(CN(C)C(C)Cc2ccccc2)n(C)n(-c2ccccc2)c1=O (configuration not stated) , thank you. False

Could you please tell me the result logged for `N#Cc1sc2c(=O)c3ccccc3c(=O)c=2sc1C#N` in this assay? True

Fill in: this test's call for `c1ccc(Nc2ccc(Nc3ccccc3)cc2)cc1` is ___ False

How was `COc1ccc2c(c1OC)C(=O)O[C@@H]2[C@H]1c2cc3c(cc2CCN1C)OCO3` classified in this test? False

Tell me the recorded outcome of this test for `CCN(CC)C(=O)N[C@@H]1C=C2c3cccc4[nH]cc(c34)C[C@@H]2N(C)C1` . False

Fill in: this test's call for `Oc1cccc(Cl)c1Cl` is ___ False

Please state the recorded outcome for this compound: `C=CC(=O)[O][Sn]([CH2]CCC)([CH2]CCC)[CH2]CCC` True

Recorded test outcome, item `Nc1ccccc1-c1ccccc1` False

Would you mind telling me which call this test gave `C#CCO` ? False

Could you please tell me the result logged for `N#CC(C#N)=NNc1cccc(Cl)c1` in this assay? True

Identify the outcome logged in this assay for the compound shown: CC(C)NCC(O)c1ccccc1Cl (configuration not stated) False

So what was the verdict on `CN=C=O` in this test? False

For this compound, state the assay outcome: `c1csc(-c2ccc(-c3cccs3)s2)c1` False

Dear colleague, could you share the recorded outcome for `COP(=S)(OC)Oc1ccc([N+](=O)[O-])c(C)c1` when you have a moment? False

What classification did `Oc1cc(Cl)cc(Cl)c1` end up with in this test? False

So what was the verdict on `CC(=O)[O][Pb]([c]1ccccc1)([c]1ccccc1)[c]1ccccc1` in this test? True

Give the logged outcome of this assay for the following compound: `C[C@]12Cc3cn[nH]c3C[C@@H]1CC[C@@H]1[C@@H]2CC[C@@]2(C)[C@H]1CC[C@]2(C)O` False

// param item: `[O]=[Cr][O][Cr]=[O]` ; yields the recorded call False

Record lookup: outcome of this test for `CC[C@]1(O)CC[C@H]2[C@@H]3CCC4=CCCC[C@@H]4[C@H]3CC[C@@]21C` ? True

Outcome? `CCC[CH2][Sn]([CH2]CCC)([CH2]CCC)[CH2]CCC` True

Field: outcome | Entry: CC(Cc1ccc(O)cc1)NCC(O)c1cc(O)cc(O)c1 (configuration not stated) False

How did this test come out for `Brc1cccc(-c2ccccc2)c1` ? False
